Tested on: Trypanosoma cruzi
Assay: Trypanosoma cruzi phosphomannomutase and mannose-1-phosphate guanylyltransferase assay
Type: functional
Design: scale not given: direction of the effect not stated beside the values
Conditions: 10 µM
Percent Effect listing for selected compounds.

Past entries and their recorded results:
{"COMPOUND": "Cn1nc(C2CCCN(C(=O)Cc3ccsc3)C2)c2nccnc21 (configuration not stated)", "TARGET_UNDER_TEST": "Trypanosoma cruzi", "ENDPOINT_NAME": "Percent Effect", "RESULT": "-5.14%"}
{"COMPOUND": "CCc1nnc2n1CCN(C(=O)Cc1csc(-c3ccco3)n1)C2", "TARGET_UNDER_TEST": "Trypanosoma cruzi", "ENDPOINT_NAME": "Percent Effect", "RESULT": "-1.04%"}
{"COMPOUND": "Nc1nc(CN2CCCC(Cn3cncn3)C2)nc2ccccc12 (configuration not stated)", "TARGET_UNDER_TEST": "Trypanosoma cruzi", "ENDPOINT_NAME": "Percent Effect", "RESULT": "3.06%"}

Percent Effect reading for "O=C(CNC(=O)N1CCc2c([nH]c3ccc(Cl)cc23)C1)N1CCOCC1" : -2.55%

Lab note: "Cc1nc(CC(=O)N2CCCN(c3ccc(C#N)cc3)CC2)cs1" gave Percent Effect of -5.55%

# Percent Effect of CC1c2ncc(COc3cccnc3)n2CCN1C(=O)Cc1ccco1 (configuration not stated) = -2.36%

So for c1cnnc(N2CCCC2CNc2ncnc3ccccc23)c1 (configuration not stated) , the logged Percent Effect turned out to be -4.41%

Record c1ccc(Cn2ccnc2CN2CCOC(Cn3cccn3)C2)cc1 (configuration not stated) . Reported Percent Effect: -7.69%

Recorded result, COc1ccc(OC)c(NC(=O)NCC(O)c2ccc(F)c(F)c2)c1 (configuration not stated) , Percent Effect: -5.44%

Measured Percent Effect of "Cn1ccc(CN2CCC(Oc3ccccc3)CC2)cc1=O" : -1.69%

// field: Percent Effect; key: Cn1cnnc1C1CCCN(C(=O)NCCc2ccccc2F)C1 (configuration not stated) ; value = 5.97%

Input Cc1occc1C(=O)N1CCC2(CC1)NC(=O)CC2c1cnn(C)c1 (configuration not stated) . Output Percent Effect: 1.86%
